assay.system: T1, IL10Rα/IL2Rγ receptor (human) (UniProt Q13651)
T1 sequence (looked up) 1: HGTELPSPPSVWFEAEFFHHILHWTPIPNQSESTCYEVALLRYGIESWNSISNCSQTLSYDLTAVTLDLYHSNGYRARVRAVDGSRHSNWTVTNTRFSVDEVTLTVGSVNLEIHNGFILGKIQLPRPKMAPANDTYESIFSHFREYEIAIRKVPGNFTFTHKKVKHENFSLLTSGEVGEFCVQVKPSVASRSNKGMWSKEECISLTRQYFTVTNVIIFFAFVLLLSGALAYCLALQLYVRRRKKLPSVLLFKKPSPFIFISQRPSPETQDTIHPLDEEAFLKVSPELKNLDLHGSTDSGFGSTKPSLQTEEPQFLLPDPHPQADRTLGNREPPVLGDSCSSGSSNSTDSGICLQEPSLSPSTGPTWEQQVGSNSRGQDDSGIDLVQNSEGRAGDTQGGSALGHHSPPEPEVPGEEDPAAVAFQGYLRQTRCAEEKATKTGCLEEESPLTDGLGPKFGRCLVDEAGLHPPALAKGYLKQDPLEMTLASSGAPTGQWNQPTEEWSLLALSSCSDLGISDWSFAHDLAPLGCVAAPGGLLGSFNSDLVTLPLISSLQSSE
T1 sequence (looked up) 2: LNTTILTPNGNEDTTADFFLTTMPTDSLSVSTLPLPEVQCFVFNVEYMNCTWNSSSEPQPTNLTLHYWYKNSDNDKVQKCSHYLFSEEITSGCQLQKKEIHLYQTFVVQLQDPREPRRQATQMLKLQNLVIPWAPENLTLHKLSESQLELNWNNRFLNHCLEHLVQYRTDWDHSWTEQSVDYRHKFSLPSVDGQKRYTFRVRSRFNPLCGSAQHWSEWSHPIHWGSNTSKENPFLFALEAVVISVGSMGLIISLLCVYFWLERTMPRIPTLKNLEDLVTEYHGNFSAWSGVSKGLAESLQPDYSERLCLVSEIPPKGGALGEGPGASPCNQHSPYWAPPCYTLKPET
experimental.details: cell-based or functional assay
Granzyme A secretion, CD8 T cells, at 0.0001 µM values, listed per item
readout.type: Granzyme A secretion, CD8 T cells, at 0.0001 µM (pg/mL)

1. hIL10Ra_VHH14 - hIL2Rg_VHH19, linker GGGS, tag Fc (bispecific antibody, not shown: a dimerising Fc or GST) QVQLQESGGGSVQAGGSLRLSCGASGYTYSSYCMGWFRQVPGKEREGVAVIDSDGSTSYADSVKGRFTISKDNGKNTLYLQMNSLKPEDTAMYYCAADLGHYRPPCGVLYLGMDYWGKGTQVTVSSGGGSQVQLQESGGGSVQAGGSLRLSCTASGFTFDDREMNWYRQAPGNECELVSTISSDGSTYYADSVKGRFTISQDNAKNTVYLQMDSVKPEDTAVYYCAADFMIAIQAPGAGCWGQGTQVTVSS: 22100
2. hIL10Ra_VHH14 - hIL2Rg_VHH19, No linker, tag his (bispecific antibody, not shown: small tags and cut ends) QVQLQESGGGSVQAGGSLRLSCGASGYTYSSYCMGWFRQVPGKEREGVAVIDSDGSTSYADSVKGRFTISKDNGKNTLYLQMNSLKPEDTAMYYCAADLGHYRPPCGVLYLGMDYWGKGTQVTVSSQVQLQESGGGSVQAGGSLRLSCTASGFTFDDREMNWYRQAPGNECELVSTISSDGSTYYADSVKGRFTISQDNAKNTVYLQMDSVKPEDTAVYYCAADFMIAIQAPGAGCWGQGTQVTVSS: 19700
3. hIL10Ra_VHH14 - hIL2Rg_VHH19, linker …, tag his (bispecific antibody, not shown: small tags and cut ends) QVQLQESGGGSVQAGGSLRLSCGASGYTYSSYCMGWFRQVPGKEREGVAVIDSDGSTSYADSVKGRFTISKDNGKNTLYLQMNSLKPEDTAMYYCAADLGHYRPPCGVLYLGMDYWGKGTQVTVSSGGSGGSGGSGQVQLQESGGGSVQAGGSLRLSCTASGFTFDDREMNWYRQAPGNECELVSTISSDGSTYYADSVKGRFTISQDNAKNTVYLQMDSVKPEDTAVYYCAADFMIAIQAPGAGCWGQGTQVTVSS: 20600
